# Assay: qHTS assay to identify small molecule antagonists of the androgen receptor (AR) signaling pathway using the MDA cell line in the presence of 0.5 nM R1881 - cell viability counter screen (AID 1259242); note: % is set by controls: 0 for no effect and ±100 for the full control effect; nearly all actives have a fitted effect of over 45% in size
# Study Conditions: MDA-kb2 viability, CellTiter-Fluor protease fluorescence, 16 h; series mostly up to 92.4 µM
Results filed as inconclusive are left out. Activity calls are given as the source filed them. Calls come from the whole dose curve; as a rule, active = well fitted cell-killing curve with a large enough effect in the repeat runs; inconclusive = weak or mixed curves, or effect the other way; inactive = flat fitted curve, though single readings scatter.
Metric: viability change, negative = cytotoxic

Recorded viability change, negative = cytotoxic, per entry:
>  <Molecule>
CN1C[C@@H]2C[C@H]1CN2c1cc2c(cc1F)c(=O)c(C(=O)O)cn2C1CC1

>  <viability change, negative = cytotoxic>
-2.38% [at 19 µM] (inactive)

$$$$
>  <Molecule>
O=C(CCCl)NCCc1ccccc1

>  <viability change, negative = cytotoxic>
inactive

$$$$
>  <Molecule>
CC(=O)Nc1ccc(OC(=O)c2ccccc2OC(C)=O)cc1

>  <viability change, negative = cytotoxic>
inactive

$$$$
>  <Molecule>
COS(=O)(=O)O

>  <viability change, negative = cytotoxic>
inactive

$$$$
>  <Molecule>
CCC(C)C(=O)OCCc1ccccc1 (stereo not drawn)

>  <viability change, negative = cytotoxic>
inactive

$$$$

Consider the additional molecule presented here.
// query Field request: viability change, negative = cytotoxic | item: "C=CCCCCCCCCC(=O)OCCCC"
// result inactive
